Tested on: lacZ under control of the tetA promoter (PtetA) in E. coli KM3
Format: cell-based
Settings: Table 4; rimsulfuron 20 ppm; 48 hrs at 30° C.
experimental.readout: relative β-galactosidase activity, inducer Rs

[
  {
    "molecule": "L1-24: SU-responsive TetR(B) variant, library L1 hit (protein, Sulfonylurea responsive repressor L1-24) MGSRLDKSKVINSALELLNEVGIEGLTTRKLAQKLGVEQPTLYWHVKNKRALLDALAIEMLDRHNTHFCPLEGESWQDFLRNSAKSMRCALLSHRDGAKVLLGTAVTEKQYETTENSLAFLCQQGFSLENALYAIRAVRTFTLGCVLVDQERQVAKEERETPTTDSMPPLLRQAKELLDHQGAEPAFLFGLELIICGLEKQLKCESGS",
    "val": 0.3
  },
  {
    "molecule": "L1-31: SU-responsive TetR(B) variant, library L1 hit (protein, Sulfonylurea responsive repressor L1-31) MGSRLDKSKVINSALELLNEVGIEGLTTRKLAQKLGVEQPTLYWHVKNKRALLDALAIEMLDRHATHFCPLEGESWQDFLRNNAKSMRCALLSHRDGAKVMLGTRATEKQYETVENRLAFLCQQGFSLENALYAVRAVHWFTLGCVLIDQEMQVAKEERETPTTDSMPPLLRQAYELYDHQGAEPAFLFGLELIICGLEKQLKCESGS",
    "val": 0.4
  }
]
